Measured values drawn from paper PMC8537445 for this set.

# EXPERIMENTAL_DETAILS: Ex vivo biodistribution in wild-type mice
# EXPERIMENTAL_CONTEXT: mouse, heart, total radioactivity, 75 min p.i., ex vivo gamma counting, + AMD3100 5 mg/kg, mean ± SD, n: PentixaFor 1, 18F 2, 68Ga 4, 177Lu 3, read-out: heart uptake
Non-standard residues stand in square brackets, D forms with d. Residues, ends and D or L forms follow the SMILES beside them. Groups on a side chain read outwards from the residue. *: point of attachment. DOTA = O=C(O)CN1CCN(CC(=O)O)CCN(CC(=O)*)CCN(CC(=O)O)CC1; 2Nal = N[C@@H](Cc1ccc2ccccc2c1)C(=O)O; dNMeOrn = CN[C@H](CCCN)C(=O)O; 4Amb = NCc1ccc(C(=O)O)cc1

- MOLECULE: "CN1C(=O)[C@@H](Cc2ccc(O)cc2)NC(=O)CNC(=O)[C@H](Cc2ccc3ccccc3c2)NC(=O)[C@H](CCCNC(=N)N)NC(=O)[C@H]1CCCNC(=O)c1ccc(CNC(=O)CN2CCN(CC(=O)O)CCN(CC(=O)O)CCN(CC(=O)O)CC2)cc1 [[^68Ga]PentixaFor, metal not drawn] (cyclo([dY][dNMeOrn]([4Amb-DOTA])R[2Nal]G))"
  SUV at 1.25 h / SUV: 0.3

###

# TARGET_UNDER_TEST: murine CXCR4 (mCXCR4) (Mus musculus)
# Construct: expressed in transfected cells; host or cells: U87 human glioblastoma cells, stably transfected
# Sequence (P70658 whole entry): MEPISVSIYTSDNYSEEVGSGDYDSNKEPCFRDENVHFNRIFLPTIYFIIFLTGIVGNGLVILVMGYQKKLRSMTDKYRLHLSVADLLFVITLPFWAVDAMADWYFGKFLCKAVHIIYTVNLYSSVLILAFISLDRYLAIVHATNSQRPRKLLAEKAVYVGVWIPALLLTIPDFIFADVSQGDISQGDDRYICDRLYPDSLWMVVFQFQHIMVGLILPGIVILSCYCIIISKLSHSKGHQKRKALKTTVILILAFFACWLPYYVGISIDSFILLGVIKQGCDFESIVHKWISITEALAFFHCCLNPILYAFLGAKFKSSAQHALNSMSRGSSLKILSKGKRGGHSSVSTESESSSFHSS
# EXPERIMENTAL_DETAILS: Competition binding with fluorescent murine CXCL12^AF647 on U87.mCXCR4 cells (flow cytometry)
# EXPERIMENTAL_CONTEXT: murine CXCL12^AF647 as fluorescent ligand, mean ± SD, n = 3, read-out: IC50 [nM] to mCXCR4
QUANTITY_KIND: IC50

- STRUCTURE_SMILES_STRING: "c1cc(CN2CCCNCCNCCCNCC2)ccc1CN1CCCNCCNCCCNCC1"
  MEASURED: "123 nM"

###

# EXPERIMENTAL_DETAILS: Ex vivo biodistribution in wild-type mice
# EXPERIMENTAL_CONTEXT: mouse, brain, total radioactivity, 75 min p.i., ex vivo gamma counting, + AMD3100 5 mg/kg, mean ± SD, n: PentixaFor 1, 18F 2, 68Ga 4, 177Lu 3, read-out: brain uptake
Non-standard residues stand in square brackets, D forms with d. Residues, ends and D or L forms follow the SMILES beside them. Groups on a side chain read outwards from the residue. *: point of attachment. DOTA = O=C(O)CN1CCN(CC(=O)O)CCN(CC(=O)*)CCN(CC(=O)O)CC1; 2Nal = N[C@@H](Cc1ccc2ccccc2c1)C(=O)O; dNMeOrn = CN[C@H](CCCN)C(=O)O; 4Amb = NCc1ccc(C(=O)O)cc1
QUANTITY_KIND: SUV at 1.25 h (SUV)

- MOLECULE: "CN1C(=O)[C@@H](Cc2ccc(O)cc2)NC(=O)CNC(=O)[C@H](Cc2ccc3ccccc3c2)NC(=O)[C@H](CCCNC(=N)N)NC(=O)[C@H]1CCCNC(=O)c1ccc(CNC(=O)CN2CCN(CC(=O)O)CCN(CC(=O)O)CCN(CC(=O)O)CC2)cc1 [[^68Ga]PentixaFor, metal not drawn] (cyclo([dY][dNMeOrn]([4Amb-DOTA])R[2Nal]G))"
  QUANTITY_KIND: "SUV at 1.25 h"
  UNIT_ABBREV: "SUV"
  MEASURED: 0.02

###

# EXPERIMENTAL_DETAILS: Ex vivo biodistribution in wild-type mice
# EXPERIMENTAL_CONTEXT: mouse, liver, total radioactivity, 75 min p.i., ex vivo gamma counting, tracer alone, mean ± SD, n: PentixaFor 3, 18F 5, 68Ga 4, 177Lu 3, read-out: liver uptake
Non-standard residues stand in square brackets, D forms with d. Residues, ends and D or L forms follow the SMILES beside them. Groups on a side chain read outwards from the residue. *: point of attachment. DOTA = O=C(O)CN1CCN(CC(=O)O)CCN(CC(=O)*)CCN(CC(=O)O)CC1; 2Nal = N[C@@H](Cc1ccc2ccccc2c1)C(=O)O; dNMeOrn = CN[C@H](CCCN)C(=O)O; 4Amb = NCc1ccc(C(=O)O)cc1
QUANTITY_KIND: SUV at 1.25 h (SUV)

- MOLECULE: "CN1C(=O)[C@@H](Cc2ccc(O)cc2)NC(=O)CNC(=O)[C@H](Cc2ccc3ccccc3c2)NC(=O)[C@H](CCCNC(=N)N)NC(=O)[C@H]1CCCNC(=O)c1ccc(CNC(=O)CN2CCN(CC(=O)O)CCN(CC(=O)O)CCN(CC(=O)O)CC2)cc1 [[^68Ga]PentixaFor, metal not drawn] (cyclo([dY][dNMeOrn]([4Amb-DOTA])R[2Nal]G))"
  QUANTITY_KIND: "SUV at 1.25 h"
  MEASURED: 0.6

###

# EXPERIMENTAL_DETAILS: Ex vivo biodistribution in wild-type mice
# EXPERIMENTAL_CONTEXT: mouse, bone (femur harboring bone marrow), total radioactivity, 75 min p.i., ex vivo gamma counting, tracer alone, mean ± SD, n: PentixaFor 3, 18F 5, 68Ga 4, 177Lu 3, read-out: bone uptake (femur harboring bone marrow)
Non-standard residues stand in square brackets, D forms with d. Residues, ends and D or L forms follow the SMILES beside them. Groups on a side chain read outwards from the residue. *: point of attachment. DOTA = O=C(O)CN1CCN(CC(=O)O)CCN(CC(=O)*)CCN(CC(=O)O)CC1; 2Nal = N[C@@H](Cc1ccc2ccccc2c1)C(=O)O; dNMeOrn = CN[C@H](CCCN)C(=O)O; 4Amb = NCc1ccc(C(=O)O)cc1
QUANTITY_KIND: SUV at 1.25 h (SUV)

- COMPOUND: "CN1C(=O)[C@@H](Cc2ccc(O)cc2)NC(=O)CNC(=O)[C@H](Cc2ccc3ccccc3c2)NC(=O)[C@H](CCCNC(=N)N)NC(=O)[C@H]1CCCNC(=O)c1ccc(CNC(=O)CN2CCN(CC(=O)O)CCN(CC(=O)O)CCN(CC(=O)O)CC2)cc1 [[^68Ga]PentixaFor, metal not drawn] (cyclo([dY][dNMeOrn]([4Amb-DOTA])R[2Nal]G))"
  MEASURED: 0.2

###

# EXPERIMENTAL_DETAILS: Ex vivo biodistribution in wild-type mice
# EXPERIMENTAL_CONTEXT: mouse, pancreas, total radioactivity, 75 min p.i., ex vivo gamma counting, + AMD3100 5 mg/kg, mean ± SD, n: PentixaFor 1, 18F 2, 68Ga 4, 177Lu 3, read-out: pancreas uptake
Non-standard residues stand in square brackets, D forms with d. Residues, ends and D or L forms follow the SMILES beside them. Groups on a side chain read outwards from the residue. *: point of attachment. DOTA = O=C(O)CN1CCN(CC(=O)O)CCN(CC(=O)*)CCN(CC(=O)O)CC1; 2Nal = N[C@@H](Cc1ccc2ccccc2c1)C(=O)O; dNMeOrn = CN[C@H](CCCN)C(=O)O; 4Amb = NCc1ccc(C(=O)O)cc1

- MOLECULE: "CN1C(=O)[C@@H](Cc2ccc(O)cc2)NC(=O)CNC(=O)[C@H](Cc2ccc3ccccc3c2)NC(=O)[C@H](CCCNC(=N)N)NC(=O)[C@H]1CCCNC(=O)c1ccc(CNC(=O)CN2CCN(CC(=O)O)CCN(CC(=O)O)CCN(CC(=O)O)CC2)cc1 [[^68Ga]PentixaFor, metal not drawn] (cyclo([dY][dNMeOrn]([4Amb-DOTA])R[2Nal]G))"
  SUV at 1.25 h: "0.3 SUV"

###

# EXPERIMENTAL_DETAILS: in vivo
# EXPERIMENTAL_CONTEXT: female, SCID (CB17.Cg-Prkdc<scid>Lyst<bg-J>/Crl), mouse, tumor, iv, total radioactivity
Non-standard residues stand in square brackets, D forms with d. Residues, ends and D or L forms follow the SMILES beside them. Groups on a side chain read outwards from the residue. *: point of attachment. DOTA = O=C(O)CN1CCN(CC(=O)O)CCN(CC(=O)*)CCN(CC(=O)O)CC1; 2Nal = N[C@@H](Cc1ccc2ccccc2c1)C(=O)O; dNMeOrn = CN[C@H](CCCN)C(=O)O; 4Amb = NCc1ccc(C(=O)O)cc1

- MOLECULE: "CN1C(=O)[C@@H](Cc2ccc(O)cc2)NC(=O)CNC(=O)[C@H](Cc2ccc3ccccc3c2)NC(=O)[C@H](CCCNC(=N)N)NC(=O)[C@H]1CCCNC(=O)c1ccc(CNC(=O)CN2CCN(CC(=O)O)CCN(CC(=O)O)CCN(CC(=O)O)CC2)cc1 [[^68Ga]PentixaFor, metal not drawn] (cyclo([dY][dNMeOrn]([4Amb-DOTA])R[2Nal]G))"
  SUV at 1 h [SUV]: 2.9
